target: VTN•uPAR•uPAATF interaction (Homo sapiens); assay: Microtiter-based ELISA for uPAR•VTN
Sequence (Q03405 23-305 limits assumed): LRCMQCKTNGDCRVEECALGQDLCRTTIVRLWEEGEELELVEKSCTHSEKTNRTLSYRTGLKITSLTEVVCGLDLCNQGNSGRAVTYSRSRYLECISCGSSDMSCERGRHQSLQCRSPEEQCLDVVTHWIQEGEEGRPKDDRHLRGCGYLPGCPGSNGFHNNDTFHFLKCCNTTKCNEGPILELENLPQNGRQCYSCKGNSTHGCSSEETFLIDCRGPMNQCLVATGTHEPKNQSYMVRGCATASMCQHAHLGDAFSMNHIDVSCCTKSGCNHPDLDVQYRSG

[
  {
    "compound": "Cc1ccc(N2C(=O)C(O)=C(C(=O)c3ccc(Cl)cc3)C2c2cccc(F)c2)cc1Br (stereo not shown) [Compound 7]",
    "IC50, µM": 32.8
  }
]

* * *

target: uPAR (Homo sapiens)
Sequence (Q03405 23-305 limits assumed): as above

[
  {
    "compound": "Cc1ccc(N2C(=O)C(O)=C(C(=O)c3ccc(Cl)cc3)C2c2cccc(F)c2)cc1Br (stereo not shown) [Compound 7]",
    "study.system": "uPAR (Homo sapiens)",
    "Kd": "17.2 µM"
  }
]
